Measurement label: melting point

Answered cases to consult:
[[record]]
compound = "COc1cc2[nH]c(N(C)Cc3cccc(NCCO)c3)nc(=O)c2c(OC)c1OC [Example 182]"
measurement_label = "melting point"
measured_value = "60.5 to 61.5 °C"

[[record]]
compound = "CCN(CCO)Cc1ccc(CN(C)c2nc(=O)c3c(C)c(OC)c(OC)cc3[nH]2)cc1"
measurement_label = "melting point"
measured_value = "142 to 145 °C"


Record COCCN(C)C(C)c1cccc(CN(C)c2nc(=O)c3c(C)c(OC)c(OC)cc3[nH]2)c1 (stereo not drawn) . Reported melting point: 114.5 to 116.9 °C

// melting point value for `COc1cc2[nH]c(N(C)Cc3cccc(NC4=NCCC4)c3)nc(=O)c2cc1OC` : 211 to 214 °C

Entry `COCCOc1cccc(CN(C)c2nc(=O)c3c(OC)c(OC)c(OC)cc3[nH]2)c1` ; melting point = 144.8 to 145.9 °C
